Target or system: DNA polymerase catalytic subunit (Human cytomegalovirus)
Experimental protocol: Inhibitory activity against Human Cytomegalovirus (HCMV) polymerase
Readout name: pIC50
Numbers only, as −log10 of the molar value.

>>> reading("N#Cc1ccc(NC(=O)c2cc3ccccc3cc2O)cc1")
4.72
>>> reading("O=C(Nc1ccc(Cl)cc1)c1cc2ccccc2cc1O")
4.16
>>> reading("O=C(NCc1ccc([N+](=O)[O-])cc1)c1ccc2ccccc2c1O")
4.84
>>> reading("O=C(Nc1cccc([N+](=O)[O-])c1)c1cc2ccccc2cc1O")
4.92
>>> reading("COc1ccc2cc(O)c(C(=O)Nc3nc(-c4cccc([N+](=O)[O-])c4)cs3)cc2c1")
5.62
>>> reading("O=C(NCc1ccc(Cl)cc1)c1cc2cc(O)ccc2cc1O")
5.62

# return pIC50 for each item in the list
1. O=C(NCc1ccc(Cl)cc1)c1cc2ccccc2cc1O
2. O=C(NCc1ccc([N+](=O)[O-])cc1)c1cc2ccccc2cc1O

**A:**
[4.28, 4.92]

// for each molecule in input: emit pIC50
1. O=C(Nc1ccc(Cl)cc1)c1ccc2ccccc2c1O
2. COc1cc2ccccc2cc1C(=O)NCc1ccc(Cl)cc1
3. COc1ccc2cc(O)c(C(=O)NCc3ccc([N+](=O)[O-])cc3)cc2c1

**A:**
1: 4.43; 2: 5.10; 3: 6.09

---

Target or system: DNA polymerase catalytic subunit (Human cytomegalovirus)
Experimental protocol: Inhibitory activity against Human Cytomegalovirus (HCMV) polymerase
Provide the recorded pIC50 for the entries that follow.
Numbers only, as −log10 of the molar value.

Please review the following examples before continuing.
>>> reading("O=C(Nc1ccc(Br)cc1)c1cc2ccccc2cc1O")
4.66
>>> reading("O=C(Nc1ccc([N+](=O)[O-])cc1)c1cc2ccccc2cc1O")
4.66
>>> reading("COc1ccc2cc(O)c(C(=O)Nc3nc4c(Cl)cccc4s3)cc2c1")
5.19
>>> reading("COc1ccc2cc(O)c(C(=O)Nc3ncc(Cl)s3)cc2c1")
4.23
>>> reading("COc1ccc2cc(O)c(C(=O)Nc3nc(-c4ccc(Cl)cc4)cs3)cc2c1")
5.22
>>> reading("O=C(NCc1ccc([N+](=O)[O-])cc1)c1cc2cc(O)ccc2cc1O")
4.97
>>> reading("COc1ccc2cc(O)c(C(=O)Nc3nnc(Cc4ccc(Cl)cc4)s3)cc2c1")
5.40
>>> reading("O=C(NCc1ccc([N+](=O)[O-])cc1)c1cc2cccc(O)c2cc1O")
5.42
>>> reading("O=C(NCc1ccc(Cl)cc1)c1cc2cccc(O)c2cc1O")
5.48
>>> reading("O=C(NCc1ccc([N+](=O)[O-])cc1)c1cc2cc(Br)ccc2c(Br)c1O")
5.54

Batch of 3 compounds: report pIC50 for each.
1. O=C(NCc1ccc(Cl)cc1)c1ccc2ccccc2c1O
2. COc1ccc(NC(=O)c2cc3ccccc3cc2O)cc1
3. COc1ccc2cc(O)c(C(=O)NCc3ccc(Cl)cc3)cc2c1

**A:**
1. 4.89
2. 4.25
3. 6.12

---

Target or system: DNA polymerase catalytic subunit (Human cytomegalovirus)
Experimental protocol: Inhibitory activity against Human Cytomegalovirus (HCMV) polymerase
pIC50: −log10 of the molar value.
Readout name: pIC50

Below, 4 compounds whose answers are already recorded.
>>> reading("COc1ccc2cc(O)c(CNCc3ccc(Cl)cc3)cc2c1")
"< 4.00"
>>> reading("COCOc1cc2ccccc2cc1C(=O)Nc1ccc([N+](=O)[O-])cc1")
"< 4.00"
>>> reading("O=C(Nc1ccccn1)c1cc2ccccc2cc1O")
"< 4.00"
>>> reading("COc1cc2ccccc2cc1C(=O)Nc1ccc([N+](=O)[O-])cc1")
"< 4.00"

Lab note: each compound below needs its pIC50 filled in.
1. O=C(NCc1ccc(Cl)cc1)c1ccc2ccccc2c1
2. Nc1cccc(NC(=O)c2cc3ccccc3cc2O)c1
3. O=C(NCCc1ccc([N+](=O)[O-])cc1)c1cc2ccccc2cc1O

**A:**
["< 4.00", "< 4.00", "< 4.00"]

Each compound below has a recorded value; state its pIC50.
1. O=C(Nc1cccnc1)c1cc2ccccc2cc1O
2. O=C(NCCc1ccc(Cl)cc1)c1cc2ccccc2cc1O
3. O=C(Nc1ccccc1)c1cc2ccccc2cc1O

**A:**
["< 4.00", "< 4.00", "< 4.00"]

**Q:** I would be grateful if you could share the reported pIC50 for "O=C(Nc1ccc([N+](=O)[O-])cc1)c1ccc2ccccc2c1" .
**A:** < 4.00
